# testedTarget: hCB1R (Homo sapiens, UniProt P21554)
# Sequence (P21554 whole entry): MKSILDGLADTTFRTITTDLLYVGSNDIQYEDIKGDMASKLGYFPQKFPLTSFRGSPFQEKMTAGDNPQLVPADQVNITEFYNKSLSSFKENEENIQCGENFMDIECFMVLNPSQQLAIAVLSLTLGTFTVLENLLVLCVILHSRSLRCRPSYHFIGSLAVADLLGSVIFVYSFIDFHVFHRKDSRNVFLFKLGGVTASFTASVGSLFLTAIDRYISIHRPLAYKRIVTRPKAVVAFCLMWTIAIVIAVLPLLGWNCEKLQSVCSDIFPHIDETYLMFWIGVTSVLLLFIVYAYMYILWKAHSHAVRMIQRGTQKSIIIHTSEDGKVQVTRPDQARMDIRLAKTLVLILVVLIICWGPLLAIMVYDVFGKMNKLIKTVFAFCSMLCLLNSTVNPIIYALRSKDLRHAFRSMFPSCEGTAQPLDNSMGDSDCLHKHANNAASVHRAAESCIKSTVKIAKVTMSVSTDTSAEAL
# assayInfo: Binding to the CB1 receptor ([3H]-SR141716A displacement)
# reportedConditions: CHO-K1/cannabinoid CB1 protein 2 μg/well; [3H]-SR141716A 0.5 nM; Ki from IC50 by Cheng-Prusoff; average of double determination; read-out: hCB1R; binding Ki
Structures can show the parent of a compound that is named as a salt.
assayEndpoint: log10 Ki (log10 of the value in nM)
Answers are given as log10 of Ki in nM.

Use the examples below as a reference point.
compound: CC1(C)C(=O)N(c2ccc(C#N)c(C(F)(F)F)c2)C(=O)N1Cc1ccc(F)cc1C(=O)c1ccc(C#N)cc1 [Example 150]
log10 Ki: 1.26

compound: CC1(C)C(=O)N(c2ccc(F)c(F)c2)C(=O)N1Cc1ccccc1Cc1ccccc1 [Example 41]
log10 Ki: 2.27

compound: CC1(C)C(=O)N(c2ccc(C#N)nc2)C(=O)N1Cc1ccccc1Cc1ccccc1 [Example 123, hydrochloride]
log10 Ki: 2.15

compound: CC1(C)C(=O)N(c2ccc(C#N)c(C(F)(F)F)c2)C(=O)N1Cc1ccc(F)cc1C(=O)c1ccc(C(F)(F)F)cc1 [Example 155]
log10 Ki: 1.84

compound: CN1CCC2(CC1)C(=O)N(c1ccc(C#N)c(C(F)(F)F)c1)C(=O)N2Cc1ccccc1Cc1ccccc1 [Example 111]
log10 Ki: 1.79

Please look up its log10 Ki: COC(=O)c1ccc(Cc2ccccc2CN2C(=O)N(c3ccc(C#N)c(C(F)(F)F)c3)C(=O)C2(C)C)cc1 [Example 143]
1.11

// repeat for N#Cc1ccc(N2C(=O)N(Cc3ccccc3Cc3ccccc3)C3(CCCCCC3)C2=O)cc1C(F)(F)F [Example 116] and report
1.41

// repeat for CC1(C)C(=O)N(c2cc(Cl)cc(Cl)c2)C(=O)N1Cc1ccccc1Cc1ccccc1 [Example 65] and report
2.18

====

# testedTarget: UniProt P21554
# assayInfo: In vitro functional assay with recombinant cells (FLIPR, intracellular Ca2+), CB1
# Assay type: cell-based
# Design: expressed in transfected cells; host or cells: HEK293
# reportedConditions: recombinant HEK293 cells expressing CB1 and G-protein Galpha16; 20 min preincubation, then reference agonist; Ca2+ change (Fluo-4); read-out: hCB1R: FLIPR; IC50
assayEndpoint: IC50 (nM)
Express the result in nM but write the number alone.

Use the examples below as a reference point.
cpdSmiles: CC1(C)C(=O)N(c2ccc(C#N)c(C(F)(F)F)c2)C(=O)N1Cc1ccc(C(=O)c2ccccc2)cc1
readoutValue: 103
--
cpdSmiles: CC1(C)C(=O)N(c2ccc(F)c(C(F)(F)F)c2)C(=O)N1Cc1ccccc1Cc1ccccc1
readoutValue: 103

Please look up its IC50: CC(C)(C)c1cc(N2C(=O)N(Cc3ccccc3Cc3ccccc3)C(C)(C)C2=O)ccc1C#N
114

====

# testedTarget: hCB2R (Homo sapiens)
# Construct: expressed in transfected cells; host or cells: HEK293
# Sequence (P34972 whole entry): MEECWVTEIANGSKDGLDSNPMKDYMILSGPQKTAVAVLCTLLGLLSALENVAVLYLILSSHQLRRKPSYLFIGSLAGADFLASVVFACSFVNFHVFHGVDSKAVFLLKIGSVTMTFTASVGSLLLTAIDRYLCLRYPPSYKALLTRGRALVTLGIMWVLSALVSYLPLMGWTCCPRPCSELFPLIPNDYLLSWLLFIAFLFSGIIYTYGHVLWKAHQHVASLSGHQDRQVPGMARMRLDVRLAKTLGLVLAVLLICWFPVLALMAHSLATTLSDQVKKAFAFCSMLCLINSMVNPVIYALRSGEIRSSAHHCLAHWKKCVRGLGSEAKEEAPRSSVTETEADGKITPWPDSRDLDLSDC
# assayInfo: In vitro functional assay with recombinant cells (FLIPR, intracellular Ca2+), CB2
# Format: cell-based
# reportedConditions: recombinant HEK293 cells expressing CB2 and G-protein Galpha16; 20 min preincubation, then reference agonist; Ca2+ change (Fluo-4)
pIC50: −log10 of the molar value.
assayEndpoint: pIC50

Use the examples below as a reference point.
cpdSmiles: CC(C)(C)c1cc(N2C(=O)N(Cc3ccccc3Cc3ccccc3)C(C)(C)C2=O)ccc1C#N
pIC50: < 5.00

cpdSmiles: N#Cc1ccc(N2C(=O)N(Cc3ccccc3Cc3ccccc3)C3(CCCC3)C2=O)cc1C(F)(F)F
pIC50: < 5.00

cpdSmiles: CC1(C)C(=O)N(c2ccc(C#N)c(C(F)(F)F)c2)C(=O)N1Cc1ccc(C(=O)c2ccccc2)cc1
pIC50: < 5.00

cpdSmiles: CC1(C)C(=O)N(c2ccc(F)c(C(F)(F)F)c2)C(=O)N1Cc1ccccc1Cc1ccccc1
pIC50: < 5.00

cpdSmiles: N#Cc1ccc(N2C(=O)N(Cc3ccccc3Cc3ccccc3)C3(CCC3)C2=O)cc1C(F)(F)F
pIC50: < 5.00

Please look up its pIC50: CC1(C)C(=O)N(c2ccc(C#N)c(C(F)(F)F)c2)C(=O)N1Cc1ccccc1Cc1ccccc1
< 4.52

====

# testedTarget: UniProtKB P21554
# assayInfo: Binding to the CB1 receptor ([3H]-SR141716A displacement)
# reportedConditions: CHO-K1/cannabinoid CB1 protein 2 μg/well; [3H]-SR141716A 0.5 nM; Ki from IC50 by Cheng-Prusoff; average of double determination; read-out: hCB1R; binding Ki
assayEndpoint: log10 of Ki (log10 of the value in nM)
Answers are given as log10 of Ki in nM.

Use the examples below as a reference point.
compound: CC1(C)C(=O)N(c2ccc(C#N)c(S(F)(F)(F)(F)F)c2)C(=O)N1Cc1ccccc1Cc1ccccc1 [Example 102]
testedTarget: UniProtKB P21554
log10 of Ki: 1.28

compound: COC(=O)c1ccc(C(=O)c2ccc(CN3C(=O)N(c4ccc(F)c(C(F)(F)F)c4)C(=O)C3(C)C)cc2)cc1 [Example 151]
testedTarget: UniProtKB P21554
log10 of Ki: 1.79

compound: CC1(C)C(=O)N(c2cc(C(F)(F)F)ccc2F)C(=O)N1Cc1ccccc1Cc1ccccc1 [Example 11]
testedTarget: UniProtKB P21554
log10 of Ki: 2.12

compound: CCc1cccc(N2C(=O)N(Cc3ccccc3Cc3ccccc3)C(C)(C)C2=O)c1 [Example 1]
testedTarget: UniProtKB P21554
log10 of Ki: 2.34

compound: CC1(C)C(=O)N(c2ccc(Oc3ccc(Cl)cc3)c(C(F)(F)F)c2)C(=O)N1Cc1ccccc1Cc1ccccc1 [Example 101]
testedTarget: UniProtKB P21554
log10 of Ki: 2.00

compound: CC1(C)C(=O)N(c2ccc(Cl)c(Cl)c2)C(=O)N1Cc1ccccc1Cc1ccccc1 [Example 64]
testedTarget: UniProtKB P21554
log10 of Ki: 1.99

Let us move to another entry and its log10 of Ki.
Please look up its log10 of Ki: CC1(C)C(=O)N(c2ccc(C#N)c(C(F)(F)F)c2)C(=O)N1Cc1ccc(F)cc1C(=O)c1ccc(Cl)cc1 [Example 139]
1.89

====

# testedTarget: hCB1R (Homo sapiens, UniProt P21554)
# assayInfo: Binding to the CB1 receptor ([3H]-SR141716A displacement)
# reportedConditions: CHO-K1/cannabinoid CB1 protein 2 μg/well; [3H]-SR141716A 0.5 nM; Ki from IC50 by Cheng-Prusoff; average of double determination; read-out: hCB1R; binding Ki
# Method: Binding to the CB1 Receptor: Test compounds: The compounds (3 μl, 10 mM, 100% DMSO), pipetted into 96-well PP microtiter plates, were diluted with 27 μl of 100% DMSO (dimethyl sulfoxide). […] The values were calculated using the corrected raw data. The values reported were obtained as average values of a double determination. The IC50 values were calculated from the measurements with the program Xlfit, formula 205. […]
Structures can show the parent of a compound that is named as a salt.
assayEndpoint: Ki (nM)
Express the result in nM but write the number alone.

compound: CSc1cccc(N2C(=O)N(Cc3ccccc3Cc3ccccc3)C(C)(C)C2=O)c1
testedTarget: hCB1R (Homo sapiens, UniProt P21554)
Ki / nM: 217
--
compound: CC1(C)C(=O)N(c2cccc(C#N)c2)C(=O)N1Cc1ccccc1Cc1ccccc1
testedTarget: hCB1R (Homo sapiens, UniProt P21554)
Ki / nM: 174

Please look up its Ki: CC1(C)C(=O)N(c2ccnc(C(F)(F)F)c2)C(=O)N1Cc1ccccc1Cc1ccccc1 [Example 119, hydrochloride]
23

// repeat for N#Cc1ccc(N2C(=O)N(Cc3ccccc3Cc3ccccc3)C3(CCCCC3)C2=O)cc1C(F)(F)F and report
63

// repeat for CC1(C)C(=O)N(c2cccc(C(F)(F)F)c2)C(=O)N1Cc1ccccc1Cc1ccccc1 and report
95

// repeat for CC1(C)C(=O)N(c2ccnc(Cl)c2)C(=O)N1Cc1ccccc1Cc1ccccc1 and report
94

// repeat for CC1(C)C(=O)N(c2cccc(SC(F)(F)F)c2)C(=O)N1Cc1ccccc1Cc1ccccc1 and report
66

// repeat for COC(=O)c1ccc(Cc2ccccc2CN2C(=O)N(c3ccc(F)c(C(F)(F)F)c3)C(=O)C2(C)C)cc1 and report
37

====

In this section, each of the compounds is paired with its reported pIC50.
# testedTarget: UniProt P21554
# assayInfo: In vitro functional assay with recombinant cells (FLIPR, intracellular Ca2+), CB1
# Type: cell-based
# Design: expressed in transfected cells; host or cells: HEK293
Counter-ions that a name gives are not always drawn.
Recall that pIC50 is obtained by taking minus log10 of the concentration measured in molar.

compound: CC1(C)C(=O)N(c2ccc(C#N)c(S(F)(F)(F)(F)F)c2)C(=O)N1Cc1ccccc1Cc1ccccc1
testedTarget: UniProt P21554
pIC50: 7.35
//
compound: N#Cc1ccc(N2C(=O)N(Cc3ccccc3Cc3ccccc3)C3(CCC3)C2=O)cc1C(F)(F)F
testedTarget: UniProt P21554
pIC50: 7.37
//
compound: N#Cc1ccc(N2C(=O)N(Cc3ccccc3Cc3ccccc3)C3(CCCC3)C2=O)cc1C(F)(F)F
testedTarget: UniProt P21554
pIC50: 7.12
//
compound: COC(=O)c1ccc(Cc2ccccc2CN2C(=O)N(c3ccc(C#N)c(C(F)(F)F)c3)C(=O)C2(C)C)cc1
testedTarget: UniProt P21554
pIC50: 7.19
//
compound: CC1(C)C(=O)N(c2ccc(C#N)c(C(F)(F)F)c2)C(=O)N1Cc1ccc(F)cc1C(=O)c1ccc(C#N)cc1
testedTarget: UniProt P21554
pIC50: 7.96
//
compound: CC1(C)C(=O)N(c2ccnc(C(F)(F)F)c2)C(=O)N1Cc1ccccc1Cc1ccccc1 [Example 119, hydrochloride]
testedTarget: UniProt P21554
pIC50: 7.01

Let us move to another entry and its pIC50.
Please look up its pIC50: CC1(C)C(=O)N(c2ccc(C#N)c(C(F)(F)F)c2)C(=O)N1Cc1ccccc1Cc1ccccc1
7.89
